Ref: patent US20230014445A1

# target_or_system: PI3K-α (PIK3CA) in MDA-MB-453 cells (Homo sapiens, UniProt P42336)
# Sequence (P42336 whole entry): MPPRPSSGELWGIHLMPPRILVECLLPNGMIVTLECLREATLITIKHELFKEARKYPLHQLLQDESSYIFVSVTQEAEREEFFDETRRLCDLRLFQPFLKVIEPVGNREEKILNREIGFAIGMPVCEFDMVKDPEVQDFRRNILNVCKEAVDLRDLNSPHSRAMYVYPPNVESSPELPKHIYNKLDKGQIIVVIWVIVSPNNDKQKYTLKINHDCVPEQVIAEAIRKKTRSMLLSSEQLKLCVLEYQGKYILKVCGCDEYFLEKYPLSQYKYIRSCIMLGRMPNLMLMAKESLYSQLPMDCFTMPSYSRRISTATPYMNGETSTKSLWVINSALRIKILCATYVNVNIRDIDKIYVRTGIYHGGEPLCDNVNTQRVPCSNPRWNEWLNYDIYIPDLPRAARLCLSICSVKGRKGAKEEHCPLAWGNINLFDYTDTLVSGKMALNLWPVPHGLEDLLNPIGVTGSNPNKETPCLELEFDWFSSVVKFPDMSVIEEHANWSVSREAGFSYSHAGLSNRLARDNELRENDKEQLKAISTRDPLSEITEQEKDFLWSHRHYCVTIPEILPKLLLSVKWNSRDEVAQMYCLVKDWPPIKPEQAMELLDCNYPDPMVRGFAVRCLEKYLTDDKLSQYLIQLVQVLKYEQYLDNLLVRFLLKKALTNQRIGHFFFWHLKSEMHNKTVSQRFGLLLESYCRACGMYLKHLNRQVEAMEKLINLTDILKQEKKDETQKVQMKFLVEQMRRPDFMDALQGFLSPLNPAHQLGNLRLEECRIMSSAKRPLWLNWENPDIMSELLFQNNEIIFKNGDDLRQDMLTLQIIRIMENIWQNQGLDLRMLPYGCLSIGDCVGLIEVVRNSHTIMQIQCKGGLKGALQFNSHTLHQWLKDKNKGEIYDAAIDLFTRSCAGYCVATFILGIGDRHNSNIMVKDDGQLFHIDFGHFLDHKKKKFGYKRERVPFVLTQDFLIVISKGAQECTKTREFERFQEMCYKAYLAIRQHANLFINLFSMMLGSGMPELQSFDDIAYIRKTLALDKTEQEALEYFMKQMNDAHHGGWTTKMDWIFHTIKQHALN
# Sequence (P27986 2-724, further chain): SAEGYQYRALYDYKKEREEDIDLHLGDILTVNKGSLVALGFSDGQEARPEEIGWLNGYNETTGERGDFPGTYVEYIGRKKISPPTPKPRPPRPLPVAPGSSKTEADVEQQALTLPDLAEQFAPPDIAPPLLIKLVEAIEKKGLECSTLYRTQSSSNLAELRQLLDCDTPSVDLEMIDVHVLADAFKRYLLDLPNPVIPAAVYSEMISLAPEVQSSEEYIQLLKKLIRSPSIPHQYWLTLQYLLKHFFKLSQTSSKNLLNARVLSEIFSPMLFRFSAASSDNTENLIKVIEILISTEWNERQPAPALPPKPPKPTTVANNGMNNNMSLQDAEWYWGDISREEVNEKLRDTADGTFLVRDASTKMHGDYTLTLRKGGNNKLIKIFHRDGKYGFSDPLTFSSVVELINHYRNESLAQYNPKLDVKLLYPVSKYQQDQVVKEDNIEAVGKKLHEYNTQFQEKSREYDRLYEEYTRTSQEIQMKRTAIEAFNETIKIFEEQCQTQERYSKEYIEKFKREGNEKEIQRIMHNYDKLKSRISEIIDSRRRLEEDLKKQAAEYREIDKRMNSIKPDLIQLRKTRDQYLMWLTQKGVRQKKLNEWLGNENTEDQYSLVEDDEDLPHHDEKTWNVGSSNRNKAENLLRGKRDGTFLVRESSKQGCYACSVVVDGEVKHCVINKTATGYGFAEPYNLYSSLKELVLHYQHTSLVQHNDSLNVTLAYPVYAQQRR
# test_method_notes: PI3K-Alpha Kinase (PIK3CA) activity in vitro cell based assay (AlphaLisa SureFire)
# measurement_conditions: 0% FBS, 3 hours treatment, read-out: PI3K-α (PIK3CA) in vitro cell based assay IC50
property_name: IC50

compound: Cc1cc(C(C)Nc2ccccc2C(=O)O)c2oc(-c3ccc(S(C)(=O)=O)nc3)cc(=O)c2c1 (single isomer, unassigned; isomer 1) [Example 39]
target_or_system: PI3K-α (PIK3CA) in MDA-MB-453 cells (Homo sapiens, UniProt P42336)
result: > 500 nM

compound: CC(Nc1ccccc1C(=O)O)c1cc(C(F)(F)F)cc2c(=O)cc(-c3ccccn3)oc12 (single isomer, unassigned; isomer 1) [Example 76]
target_or_system: PI3K-α (PIK3CA) in MDA-MB-453 cells (Homo sapiens, UniProt P42336)
result: 50 to 100 nM

compound: Cc1cc(C(C)Nc2ccccc2C(=O)O)c2oc(-c3ccc(F)nc3)cc(=O)c2c1 (single isomer, unassigned; isomer 2) [Example 36]
target_or_system: PI3K-α (PIK3CA) in MDA-MB-453 cells (Homo sapiens, UniProt P42336)
result: < 50 nM

compound: Cc1cc(C(C)Nc2ccccc2C(=O)O)c2oc(-c3cnc(OC(C)C)nc3)cc(=O)c2c1 (single isomer, unassigned; isomer 2) [Example 42]
target_or_system: PI3K-α (PIK3CA) in MDA-MB-453 cells (Homo sapiens, UniProt P42336)
result: 50 to 100 nM

compound: COc1ncc(-c2cc(=O)c3cc(C)cc(C(C)Nc4ccccc4C(=O)O)c3o2)cn1 (single isomer, unassigned) [Example 5]
target_or_system: PI3K-α (PIK3CA) in MDA-MB-453 cells (Homo sapiens, UniProt P42336)
result: > 500 nM

compound: COc1cccc(-c2cc(=O)c3cc(C)cc(C(C)Nc4ccccc4C(=O)O)c3o2)n1 (single isomer, unassigned; isomer 2) [Example 22]
target_or_system: PI3K-α (PIK3CA) in MDA-MB-453 cells (Homo sapiens, UniProt P42336)
result: 50 to 100 nM
